src = patent US20240150345A1

Here's a batch of compounds along with measured pIC50 for GCN2 (Homo sapiens).
pIC50: −log10 of the molar value.
VALUE TYPE: pIC50

>  <COMPOUND>
COc1ncc(F)cc1S(=O)(=O)Nc1ccc(F)c(COc2cnc3c(c2)C2(CC2)C(=O)N3)c1F [Compound 72]

>  <TARGET SYSTEM>
GCN2 (Homo sapiens)
Sequence (Q9P2K8 whole entry): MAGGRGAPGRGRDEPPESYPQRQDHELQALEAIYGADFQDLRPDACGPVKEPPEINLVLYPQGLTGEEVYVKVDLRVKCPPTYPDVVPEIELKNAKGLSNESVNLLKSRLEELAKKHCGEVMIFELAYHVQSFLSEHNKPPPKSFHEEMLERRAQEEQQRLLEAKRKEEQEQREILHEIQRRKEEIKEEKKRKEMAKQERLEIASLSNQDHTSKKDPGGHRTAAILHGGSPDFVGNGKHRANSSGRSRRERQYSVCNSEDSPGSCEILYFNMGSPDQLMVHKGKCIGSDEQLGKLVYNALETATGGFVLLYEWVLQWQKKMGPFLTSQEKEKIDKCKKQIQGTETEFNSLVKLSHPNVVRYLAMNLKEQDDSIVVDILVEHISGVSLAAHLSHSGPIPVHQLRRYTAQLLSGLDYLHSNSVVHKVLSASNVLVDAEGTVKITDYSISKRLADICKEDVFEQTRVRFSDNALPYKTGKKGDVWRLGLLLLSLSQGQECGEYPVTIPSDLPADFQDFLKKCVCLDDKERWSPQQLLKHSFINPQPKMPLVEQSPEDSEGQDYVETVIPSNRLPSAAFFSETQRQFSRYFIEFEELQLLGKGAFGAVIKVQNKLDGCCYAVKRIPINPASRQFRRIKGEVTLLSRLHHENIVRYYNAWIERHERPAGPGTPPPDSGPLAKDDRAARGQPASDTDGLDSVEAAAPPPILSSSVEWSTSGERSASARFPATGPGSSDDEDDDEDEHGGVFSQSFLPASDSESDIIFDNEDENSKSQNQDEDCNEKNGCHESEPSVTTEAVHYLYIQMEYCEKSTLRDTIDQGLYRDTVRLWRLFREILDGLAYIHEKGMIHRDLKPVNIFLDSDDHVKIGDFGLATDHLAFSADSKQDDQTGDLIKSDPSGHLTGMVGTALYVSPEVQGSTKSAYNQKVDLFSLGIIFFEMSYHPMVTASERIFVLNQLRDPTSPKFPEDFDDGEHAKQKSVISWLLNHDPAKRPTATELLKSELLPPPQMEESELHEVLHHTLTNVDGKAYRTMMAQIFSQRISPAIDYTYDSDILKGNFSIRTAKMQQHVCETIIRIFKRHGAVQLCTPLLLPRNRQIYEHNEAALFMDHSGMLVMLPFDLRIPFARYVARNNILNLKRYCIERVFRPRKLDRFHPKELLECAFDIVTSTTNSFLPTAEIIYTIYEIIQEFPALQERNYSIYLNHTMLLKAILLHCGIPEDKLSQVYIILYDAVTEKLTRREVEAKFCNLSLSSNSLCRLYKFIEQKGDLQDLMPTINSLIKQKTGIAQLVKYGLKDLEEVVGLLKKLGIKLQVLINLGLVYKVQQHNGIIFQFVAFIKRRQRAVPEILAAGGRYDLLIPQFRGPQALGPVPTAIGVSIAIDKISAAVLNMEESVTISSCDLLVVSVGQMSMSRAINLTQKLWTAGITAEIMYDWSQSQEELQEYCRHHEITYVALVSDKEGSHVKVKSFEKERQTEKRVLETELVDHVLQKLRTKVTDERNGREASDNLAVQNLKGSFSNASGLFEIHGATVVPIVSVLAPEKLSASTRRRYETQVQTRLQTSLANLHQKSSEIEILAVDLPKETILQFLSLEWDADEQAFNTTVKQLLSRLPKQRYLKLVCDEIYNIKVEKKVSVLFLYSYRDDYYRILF

>  <VALUE TYPE>
pIC50

>  <VALUE OBSERVED>
> 7.30

$$$$
>  <COMPOUND>
COc1ncc(F)cc1S(=O)(=O)Nc1ccc(F)c(COc2cnn3cnc(C)c3c2)c1F [Compound 82]

>  <TARGET SYSTEM>
GCN2 (Homo sapiens)

>  <VALUE TYPE>
pIC50

>  <VALUE OBSERVED>
> 7.30

$$$$
>  <COMPOUND>
COc1ncc(F)cc1S(=O)(=O)Nc1ccc(F)c(COc2cnc3[nH]ncc3c2OC)c1F [Compound 23]

>  <TARGET SYSTEM>
GCN2 (Homo sapiens)

>  <VALUE TYPE>
pIC50

>  <VALUE OBSERVED>
6.30 to 7.30

$$$$
>  <COMPOUND>
COc1ncc(C#N)cc1S(=O)(=O)Nc1ccc(F)c(OCc2cnc3[nH]nc(C)c3c2)c1F [Compound 48]

>  <TARGET SYSTEM>
GCN2 (Homo sapiens)

>  <VALUE TYPE>
pIC50

>  <VALUE OBSERVED>
6.30 to 7.30

$$$$
>  <COMPOUND>
CCn1ncc2ncc(CCc3c(F)ccc(NS(=O)(=O)c4cc(Cl)cnc4OC)c3F)cc21 [Compound 33]

>  <TARGET SYSTEM>
GCN2 (Homo sapiens)

>  <VALUE TYPE>
pIC50

>  <VALUE OBSERVED>
> 7.30

$$$$
>  <COMPOUND>
COc1ncc(F)cc1S(=O)(=O)Nc1ccnc(COc2cnc3[nH]nc(C)c3c2)c1F [Compound 63]

>  <TARGET SYSTEM>
GCN2 (Homo sapiens)

>  <VALUE TYPE>
pIC50

>  <VALUE OBSERVED>
6.30 to 7.30

$$$$
>  <COMPOUND>
COc1ncc(Cl)cc1S(=O)(=O)Nc1ccc(F)c(CCc2cnc3[nH]ccc3c2)c1F [Compound 12]

>  <TARGET SYSTEM>
GCN2 (Homo sapiens)

>  <VALUE TYPE>
pIC50

>  <VALUE OBSERVED>
> 7.30

$$$$
>  <COMPOUND>
COc1ncc(F)cc1S(=O)(=O)Nc1ccc(F)c(COc2cnc3[nH]nc(CC(F)F)c3c2)c1F [Compound 75]

>  <TARGET SYSTEM>
GCN2 (Homo sapiens)

>  <VALUE TYPE>
pIC50

>  <VALUE OBSERVED>
> 7.30

$$$$
>  <COMPOUND>
COc1ncc(F)cc1S(=O)(=O)Nc1ccc(F)c(COc2cnc3[nH]nc(C)c3c2C2CCN(C)CC2)c1F [Compound 93]

>  <TARGET SYSTEM>
GCN2 (Homo sapiens)

>  <VALUE TYPE>
pIC50

>  <VALUE OBSERVED>
< 6.00

$$$$
>  <COMPOUND>
COc1ncc(F)cc1S(=O)(=O)Nc1ccc(F)c(COc2cnc3[nH]nc(C)c3c2-c2ccccn2)c1F [Compound 90]

>  <TARGET SYSTEM>
GCN2 (Homo sapiens)

>  <VALUE TYPE>
pIC50

>  <VALUE OBSERVED>
6.30 to 7.30

$$$$
>  <COMPOUND>
COc1ncc(F)cc1S(=O)(=O)Nc1ccc(F)c(COc2cnc3[nH]nc(C)c3c2N2CCCCC2)c1F [Compound 94]

>  <TARGET SYSTEM>
GCN2 (Homo sapiens)

>  <VALUE TYPE>
pIC50

>  <VALUE OBSERVED>
6.30 to 7.30

$$$$
>  <COMPOUND>
Cc1ncc(F)cc1S(=O)(=O)Nc1ccc(F)c(COc2cnc3[nH]ncc3c2)c1F [Compound 30]

>  <TARGET SYSTEM>
GCN2 (Homo sapiens)

>  <VALUE TYPE>
pIC50

>  <VALUE OBSERVED>
> 7.30

$$$$
>  <COMPOUND>
COc1ncc(Cl)cc1S(=O)(=O)Nc1ccc(F)c(COc2cnc3[nH]nc(C)c3c2)n1 [Compound 68]

>  <TARGET SYSTEM>
GCN2 (Homo sapiens)

>  <VALUE TYPE>
pIC50

>  <VALUE OBSERVED>
6.30 to 7.30

$$$$
>  <COMPOUND>
COc1ncc(F)cc1S(=O)(=O)Nc1ncc(F)c(COc2cnc3[nH]nc(C)c3c2)c1Cl [Compound 66]

>  <TARGET SYSTEM>
GCN2 (Homo sapiens)

>  <VALUE TYPE>
pIC50

>  <VALUE OBSERVED>
> 7.30

$$$$
>  <COMPOUND>
CCn1ncc2ncc(CCc3c(F)ccc(NS(=O)(=O)c4cc(F)cnc4OC)c3F)cc21 [Compound 34]

>  <TARGET SYSTEM>
GCN2 (Homo sapiens)

>  <VALUE TYPE>
pIC50

>  <VALUE OBSERVED>
> 7.30

$$$$
>  <COMPOUND>
COc1ncc(Cl)cc1S(=O)(=O)Nc1ccc(F)c(CCc2ccn3cncc3c2)c1F [Compound 19]

>  <TARGET SYSTEM>
GCN2 (Homo sapiens)

>  <VALUE TYPE>
pIC50

>  <VALUE OBSERVED>
< 6.00

$$$$
>  <COMPOUND>
Cc1ncc(F)cc1S(=O)(=O)Nc1ccc(F)c(NCc2cnc3[nH]nc(C)c3c2)c1F [Compound 59]

>  <TARGET SYSTEM>
GCN2 (Homo sapiens)

>  <VALUE TYPE>
pIC50

>  <VALUE OBSERVED>
6.30 to 7.30

$$$$
>  <COMPOUND>
COc1ncc(F)cc1S(=O)(=O)Nc1ccc(F)c(CCc2cnc3[nH]ncc3c2)c1F [Compound 15]

>  <TARGET SYSTEM>
GCN2 (Homo sapiens)

>  <VALUE TYPE>
pIC50

>  <VALUE OBSERVED>
> 7.30

$$$$
>  <COMPOUND>
Cc1ncc(F)cc1S(=O)(=O)Nc1ccc(F)c(OCc2cnc3[nH]nc(C)c3c2)c1F [Compound 51]

>  <TARGET SYSTEM>
GCN2 (Homo sapiens)

>  <VALUE TYPE>
pIC50

>  <VALUE OBSERVED>
6.30 to 7.30

$$$$
>  <COMPOUND>
COc1ncc(F)cc1S(=O)(=O)Nc1ccc(F)c(COc2cnc3[nH]nc(C)c3c2)c1F [Compound 2]

>  <TARGET SYSTEM>
GCN2 (Homo sapiens)

>  <VALUE TYPE>
pIC50

>  <VALUE OBSERVED>
> 7.30

$$$$
>  <COMPOUND>
COc1ncc(Cl)cc1S(=O)(=O)Nc1ccc(F)c(CCc2cc3cn[nH]c3cn2)c1F [Compound 13]

>  <TARGET SYSTEM>
GCN2 (Homo sapiens)

>  <VALUE TYPE>
pIC50

>  <VALUE OBSERVED>
< 6.00

$$$$
>  <COMPOUND>
CNC(=O)c1cc(CCc2c(F)ccc(NS(=O)(=O)c3cc(Cl)cnc3OC)c2F)[nH]n1 [Compound 8]

>  <TARGET SYSTEM>
GCN2 (Homo sapiens)

>  <VALUE TYPE>
pIC50

>  <VALUE OBSERVED>
> 7.30

$$$$
>  <COMPOUND>
COc1ncc(F)cc1S(=O)(=O)Nc1ncc(F)c(COc2cnc3[nH]nc(C)c3c2)c1F [Compound 56]

>  <TARGET SYSTEM>
GCN2 (Homo sapiens)

>  <VALUE TYPE>
pIC50

>  <VALUE OBSERVED>
> 7.30

$$$$
>  <COMPOUND>
CCc1n[nH]c2ncc(OCc3c(F)ccc(NS(=O)(=O)c4cc(C#N)cnc4OC)c3F)cc12 [Compound 41]

>  <TARGET SYSTEM>
GCN2 (Homo sapiens)

>  <VALUE TYPE>
pIC50

>  <VALUE OBSERVED>
> 7.30

$$$$
>  <COMPOUND>
COc1ncc(Cl)cc1S(=O)(=O)Nc1ccc(F)c(COc2cnc3[nH]ncc3c2)c1F [Compound 1]

>  <TARGET SYSTEM>
GCN2 (Homo sapiens)

>  <VALUE TYPE>
pIC50

>  <VALUE OBSERVED>
> 7.30

$$$$
>  <COMPOUND>
COc1ncc(C#N)cc1S(=O)(=O)Nc1ccc(F)c(CCc2cnc3[nH]ncc3c2)c1F [Compound 10]

>  <TARGET SYSTEM>
GCN2 (Homo sapiens)

>  <VALUE TYPE>
pIC50

>  <VALUE OBSERVED>
> 7.30

$$$$
>  <COMPOUND>
COc1ncc(F)cc1S(=O)(=O)Nc1ccc(F)c(COc2cnc3[nH]nc(C(F)(F)F)c3c2)c1F [Compound 44]

>  <TARGET SYSTEM>
GCN2 (Homo sapiens)

>  <VALUE TYPE>
pIC50

>  <VALUE OBSERVED>
> 7.30

$$$$
>  <COMPOUND>
COc1ncc(F)cc1S(=O)(=O)Nc1ccc(F)c(OCc2cnc3[nH]nc(C)c3c2)c1F [Compound 45]

>  <TARGET SYSTEM>
GCN2 (Homo sapiens)

>  <VALUE TYPE>
pIC50

>  <VALUE OBSERVED>
> 7.30

$$$$
>  <COMPOUND>
CCc1n[nH]c2ncc(OCc3c(F)ccc(NS(=O)(=O)c4cc(F)cnc4C)c3F)cc12 [Compound 47]

>  <TARGET SYSTEM>
GCN2 (Homo sapiens)

>  <VALUE TYPE>
pIC50

>  <VALUE OBSERVED>
> 7.30

$$$$
>  <COMPOUND>
COc1ncc(F)cc1S(=O)(=O)Nc1ccc(F)c(COc2cnc3[nH]nc(C(C)(F)F)c3c2)c1F [Compound 81]

>  <TARGET SYSTEM>
GCN2 (Homo sapiens)

>  <VALUE TYPE>
pIC50

>  <VALUE OBSERVED>
> 7.30

$$$$
>  <COMPOUND>
COc1ncc(C#N)cc1S(=O)(=O)Nc1ccc(F)c(COc2cnc3[nH]nc(C(C)C)c3c2)c1F [Compound 55]

>  <TARGET SYSTEM>
GCN2 (Homo sapiens)

>  <VALUE TYPE>
pIC50

>  <VALUE OBSERVED>
6.30 to 7.30

$$$$
